Target: T1, HpDprA(5-217)R52E (Helicobacter pylori 26695, UniProt O25100 5-217, R52E)
T1 sequence: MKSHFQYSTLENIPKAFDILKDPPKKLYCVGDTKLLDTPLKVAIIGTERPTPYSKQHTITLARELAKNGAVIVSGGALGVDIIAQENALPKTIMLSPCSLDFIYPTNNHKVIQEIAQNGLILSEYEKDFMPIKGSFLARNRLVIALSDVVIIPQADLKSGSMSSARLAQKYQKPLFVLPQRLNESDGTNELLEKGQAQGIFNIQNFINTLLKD
Experiment: MST
assay endpoint: Kd

input: Which value of Kd has been reported for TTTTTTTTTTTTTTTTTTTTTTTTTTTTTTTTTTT (ssDNA) [dT35] in the records?
output: 9.95 µM
